Molecular target: T1, human DLL4 extracellular domain (human, UniProt Q9NR61 27-529)
T1 construct: purified recombinant ECD; biotin-labelled or 6xHis-tagged depending on the assay; also called huDLL4 ECD; hu DLL4 ECD
T1 sequence (Q9NR61 27-529 limits assumed): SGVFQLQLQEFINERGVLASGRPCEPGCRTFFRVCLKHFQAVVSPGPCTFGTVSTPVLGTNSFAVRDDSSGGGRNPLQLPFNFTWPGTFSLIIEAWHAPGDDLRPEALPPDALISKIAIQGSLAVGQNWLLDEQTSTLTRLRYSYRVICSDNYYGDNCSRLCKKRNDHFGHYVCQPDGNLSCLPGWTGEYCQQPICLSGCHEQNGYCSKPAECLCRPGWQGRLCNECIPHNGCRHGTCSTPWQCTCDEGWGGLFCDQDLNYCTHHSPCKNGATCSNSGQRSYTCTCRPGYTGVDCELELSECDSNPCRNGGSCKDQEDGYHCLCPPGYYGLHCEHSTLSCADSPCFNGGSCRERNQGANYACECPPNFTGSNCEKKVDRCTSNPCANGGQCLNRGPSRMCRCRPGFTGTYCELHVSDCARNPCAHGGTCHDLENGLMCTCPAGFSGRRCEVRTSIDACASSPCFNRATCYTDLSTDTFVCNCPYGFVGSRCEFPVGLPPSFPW
Test: SPR (Biacore)
MEASUREMENT_TYPE: Kd (nM)
Express it in nM; write the number only.

Consider h1A11.8 (antibody, V domains shown, humanized IgG; also called VH.1a/VL.2a 1A11) VH: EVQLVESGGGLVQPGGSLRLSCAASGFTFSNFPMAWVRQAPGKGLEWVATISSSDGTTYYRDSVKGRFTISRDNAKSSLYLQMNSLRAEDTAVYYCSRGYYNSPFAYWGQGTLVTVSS VL: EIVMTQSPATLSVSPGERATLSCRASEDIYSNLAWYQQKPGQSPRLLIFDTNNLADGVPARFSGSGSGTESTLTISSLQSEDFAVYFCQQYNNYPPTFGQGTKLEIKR . Its measured Kd is 11

Consider h1A11.7 (antibody, V domains shown, humanized IgG; also called VH.1a/VL.1b 1A11) VH: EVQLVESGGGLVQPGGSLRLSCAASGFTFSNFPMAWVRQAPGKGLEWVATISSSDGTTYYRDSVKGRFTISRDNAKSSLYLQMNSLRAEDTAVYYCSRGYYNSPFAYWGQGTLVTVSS VL: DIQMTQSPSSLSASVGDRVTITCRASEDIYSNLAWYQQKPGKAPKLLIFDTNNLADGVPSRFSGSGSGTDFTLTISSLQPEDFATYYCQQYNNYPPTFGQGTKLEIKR . Its measured Kd is 13

Consider h1A11.12 (antibody, V domains shown, humanized IgG; also called VH.1b/VL.2a 1A11) VH: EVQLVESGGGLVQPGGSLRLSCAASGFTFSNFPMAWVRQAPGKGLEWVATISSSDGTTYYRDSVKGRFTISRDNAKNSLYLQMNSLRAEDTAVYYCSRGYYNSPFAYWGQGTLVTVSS VL: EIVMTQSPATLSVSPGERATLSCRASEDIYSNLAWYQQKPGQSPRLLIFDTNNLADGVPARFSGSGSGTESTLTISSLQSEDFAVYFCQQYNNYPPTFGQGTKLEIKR . Its measured Kd is 14
